# assayed.target: truncated PI3Kα (p110α/iSH2 p85α) (Homo sapiens (Human), UniProt P42336)
# Sequence (P42336 whole entry, the tested form may be a part): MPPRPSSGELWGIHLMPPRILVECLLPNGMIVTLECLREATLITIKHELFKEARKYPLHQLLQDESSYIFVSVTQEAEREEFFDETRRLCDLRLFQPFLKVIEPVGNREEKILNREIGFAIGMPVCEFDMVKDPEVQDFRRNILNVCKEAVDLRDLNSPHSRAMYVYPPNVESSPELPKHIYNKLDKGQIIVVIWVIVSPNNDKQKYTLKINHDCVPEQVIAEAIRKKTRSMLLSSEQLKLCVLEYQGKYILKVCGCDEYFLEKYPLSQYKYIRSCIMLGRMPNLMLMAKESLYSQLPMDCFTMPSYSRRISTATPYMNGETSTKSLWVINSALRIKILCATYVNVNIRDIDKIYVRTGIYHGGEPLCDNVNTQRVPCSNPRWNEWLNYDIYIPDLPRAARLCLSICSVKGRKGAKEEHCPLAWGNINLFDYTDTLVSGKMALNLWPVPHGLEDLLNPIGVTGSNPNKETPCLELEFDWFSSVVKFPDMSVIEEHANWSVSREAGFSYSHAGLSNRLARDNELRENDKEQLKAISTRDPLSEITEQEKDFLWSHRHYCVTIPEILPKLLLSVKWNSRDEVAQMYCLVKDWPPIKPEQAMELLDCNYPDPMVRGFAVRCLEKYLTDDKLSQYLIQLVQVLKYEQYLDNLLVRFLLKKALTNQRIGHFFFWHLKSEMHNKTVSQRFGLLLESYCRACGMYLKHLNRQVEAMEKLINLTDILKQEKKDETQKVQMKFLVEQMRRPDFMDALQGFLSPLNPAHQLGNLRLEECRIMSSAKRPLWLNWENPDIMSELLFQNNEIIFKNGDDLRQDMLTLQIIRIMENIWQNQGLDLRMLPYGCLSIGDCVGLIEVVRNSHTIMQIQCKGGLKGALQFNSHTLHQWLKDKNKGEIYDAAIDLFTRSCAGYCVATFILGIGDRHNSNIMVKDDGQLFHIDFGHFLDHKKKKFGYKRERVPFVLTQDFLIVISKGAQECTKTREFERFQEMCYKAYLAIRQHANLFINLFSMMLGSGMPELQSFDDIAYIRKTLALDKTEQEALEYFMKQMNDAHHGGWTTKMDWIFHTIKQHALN
# assay.overview: PI3KA_Act fluorescence polarization kinase assay (Ki)
# Assay type: biochemical
# assay.setup: 1 mM ATP
Friendly reminder: PI3KA_Act Ki below 0.1 nM is Y, at or above is N.

These recorded examples may help you get a feel for the data.
Exercise: Hello, I'm reviewing records and need to know if PI3KA_Act Ki of C[C@@H](O)COC(=O)N1CC(N2CCc3c(-c4cnc(N)nc4)nc(N4CCOC[C@@H]4C)nc32)C1 is below 0.1 nM. Could you check?
Solution: N

Exercise: Another compound to look at: C[C@]1(N2CCc3c(-c4cnc(N)nc4)nc(N4CCOCC4)nc32)CCN(C(=O)C2(N)CCOC2)C1.Cl (some centres unmarked)
Solution: Y

Exercise: Same again, this time with CC(C)(C(N)=O)C(=O)N1CC[C@](C)(N2CCc3c(-c4cnc(N)nc4)nc(N4CCOCC4)nc32)C1
Solution: Y

Exercise: Okay, and C[C@]1(N2CCc3c(-c4cnc(N)nc4)nc(N4CCOCC4)nc32)CCN(C(=O)C2CNC2)C1.Cl ?
Solution: Y

Exercise: Next compound up: CCC(=O)NCC(=O)N1CC(N2CCc3c(-c4cnc(N)nc4)nc(N4CCOCC4)nc32)C1
Solution: N

Exercise: Follow-up item: CC(C)OC(=O)N1CC[C@](C)(N2CCc3c(-c4cnc(N)nc4)nc(N4CCOCC4)nc32)C1
Solution: Y

Exercise: Quick one: CC(C)C(=O)NCC(=O)N1CC(N2CCc3c(-c4cnc(N)nc4)nc(N4CCOC[C@@H]4C)nc32)C1
Solution: N

Exercise: Next: CCNC(=O)N1CC[C@@](C)(N2CCc3c(-c4cnc(N)nc4)nc(N4CCOCC4)nc32)C1
Solution: Y

New cases:
Exercise: # check: PI3KA_Act Ki < 0.1 nM for CC(C)C(=O)N1CC[C@](C)(N2CCc3c(-c4cnc(N)nc4)nc(N4CCOCC4)nc32)C1
Solution: Y

Exercise: Also C[C@@]1(N2CCc3c(-c4cnc(N)nc4)nc(N4CCOCC4)nc32)CCN(C(=O)N2CCC2)C1 ?
Solution: Y
